Origin of values: patent US20160244497A1

- test-system: beta-klotho
- test-summary: cell-based or functional assay
measured-property: EC50, ELK-luciferase assay (nM)
Only the number, expressed in nM, is required.

binder: Tethered Molecule of two FGF21 E91C, P171G polypeptides (20 kDa PEG linker) (ligand, Cys 91 of the two chains joined by one 20 kDa PEG bis-maleimide) MHPIPDSSPLLQFGGQVRQRYLYTDDAQQTEAHLEIREDGTVGGAADQSPESLLQLKALKPGVIQILGVKTSRFLCQRPDGALYGSLHFDPCACSFRELLLEDGYNVYQSEAHGLPLHLPGNKSPHRDPAPRGPARFLPLPGLPPAPPEPPGILAPQPPDVGSSDPLSMVGGSQGRSPSYAS
measured-property: EC50, ELK-luciferase assay
measured-result: 0.2
//
binder: Tethered Molecule of two FGF21 R77C, P171G polypeptides (20 kDa PEG linker) (ligand, Cys 77 of the two chains joined by one 20 kDa PEG bis-maleimide) MHPIPDSSPLLQFGGQVRQRYLYTDDAQQTEAHLEIREDGTVGGAADQSPESLLQLKALKPGVIQILGVKTSRFLCQCPDGALYGSLHFDPEACSFRELLLEDGYNVYQSEAHGLPLHLPGNKSPHRDPAPRGPARFLPLPGLPPAPPEPPGILAPQPPDVGSSDPLSMVGGSQGRSPSYAS
measured-property: EC50, ELK-luciferase assay
measured-result: 0.25
//
binder: Tethered Molecule of two FGF21 E37C, P171G polypeptides (20 kDa PEG linker) (ligand, Cys 37 of the two chains joined by one 20 kDa PEG bis-maleimide) MHPIPDSSPLLQFGGQVRQRYLYTDDAQQTEAHLEIRCDGTVGGAADQSPESLLQLKALKPGVIQILGVKTSRFLCQRPDGALYGSLHFDPEACSFRELLLEDGYNVYQSEAHGLPLHLPGNKSPHRDPAPRGPARFLPLPGLPPAPPEPPGILAPQPPDVGSSDPLSMVGGSQGRSPSYAS
measured-property: EC50, ELK-luciferase assay
measured-result: 0.36
//
binder: Tethered Molecule of two FGF21 P171C polypeptides (20 kDa PEG linker) (ligand, Cys 171 of the two chains joined by one 20 kDa PEG bis-maleimide) MHPIPDSSPLLQFGGQVRQRYLYTDDAQQTEAHLEIREDGTVGGAADQSPESLLQLKALKPGVIQILGVKTSRFLCQRPDGALYGSLHFDPEACSFRELLLEDGYNVYQSEAHGLPLHLPGNKSPHRDPAPRGPARFLPLPGLPPAPPEPPGILAPQPPDVGSSDPLSMVGCSQGRSPSYAS
measured-property: EC50, ELK-luciferase assay
measured-result: 0.21
//
binder: Tethered Molecule of two FGF21 G170C polypeptides (20 kDa PEG linker) (ligand, Cys 170 of the two chains joined by one 20 kDa PEG bis-maleimide) MHPIPDSSPLLQFGGQVRQRYLYTDDAQQTEAHLEIREDGTVGGAADQSPESLLQLKALKPGVIQILGVKTSRFLCQRPDGALYGSLHFDPEACSFRELLLEDGYNVYQSEAHGLPLHLPGNKSPHRDPAPRGPARFLPLPGLPPAPPEPPGILAPQPPDVGSSDPLSMVCPSQGRSPSYAS
measured-property: EC50, ELK-luciferase assay
measured-result: 0.47

Q) Recorded EC50, ELK-luciferase assay of Tethered Molecule of two FGF21 H125C, P171G polypeptides (20 kDa PEG linker) (ligand, Cys 125 of the two chains joined by one 20 kDa PEG bis-maleimide) MHPIPDSSPLLQFGGQVRQRYLYTDDAQQTEAHLEIREDGTVGGAADQSPESLLQLKALKPGVIQILGVKTSRFLCQRPDGALYGSLHFDPEACSFRELLLEDGYNVYQSEAHGLPLHLPGNKSPCRDPAPRGPARFLPLPGLPPAPPEPPGILAPQPPDVGSSDPLSMVGGSQGRSPSYAS , please.
A) 0.21
